- method: qHTS Assay for Lipid Storage Modulators in Drosophila S3 Cells
- measurement setup: BODIPY lipid droplet fluorescence, 18-24 h, cells fed with added oleic acid; series mostly up to 46.1 µM
The campaign covered roughly 320,000 compounds. About 2,100 (0.66%) were called active. Another 53% or so got no clear call; they are omitted. Calls come from the whole dose curve; as a rule, active = well fitted inhibition curve with a large enough effect in the signal ratio, with a control signal flat (not every such curve was filed as active); inconclusive = small, poorly fitted or top-dose-only effect, or effect the other way, or a change in a side signal; inactive = flat fitted curve, though single readings scatter; the % refers to the signal ratio. What follows is part of a selection rich in actives, with near analogues and random picks from the rest.
Possible outcomes: 1 (active), -1 (inactive)

[[record]]
mol_smiles = "CCn1c(CNc2ccc(C)cc2)nnc1SCC(=O)NCc1ccccc1"
discrete_label = -1

[[record]]
mol_smiles = "Cc1cc(=O)[nH]c(SCC(=O)c2ccc3c(c2)NC(=O)CO3)n1"
discrete_label = -1

[[record]]
mol_smiles = "CN1CCN(C2=NC(=O)/C(=C/c3ccccc3OS(=O)(=O)c3ccccc3)S2)CC1"
discrete_label = -1

[[record]]
mol_smiles = "COCCNc1nc(CSc2ccccc2)nc2sc(C)c(C)c12"
discrete_label = -1

[[record]]
mol_smiles = "CCn1c(CSc2nc3ccccc3s2)nnc1SCC(=O)c1ccc(O)cc1O"
discrete_label = -1

[[record]]
mol_smiles = "CCOC(=O)c1cnc(NCc2ccccc2)nc1C"
discrete_label = -1

[[record]]
mol_smiles = "CCn1c(CSc2nc3ccccc3s2)nnc1SCC(=O)NCC(=O)OC"
discrete_label = 1

[[record]]
mol_smiles = "Cc1ccc(C(=O)OCC(=O)NCCC2=CCCCC2)cc1N"
discrete_label = -1

[[record]]
mol_smiles = "NNC(=O)c1csc(-c2ncc(C(F)(F)F)cc2Cl)n1"
discrete_label = -1

[[record]]
mol_smiles = "CCO[C@@H]1OC(C(=O)NCc2nc3ccccc3[nH]2)=C[C@H](C)[C@H]1CCCO"
discrete_label = -1

[[record]]
mol_smiles = "COc1ccc(CCNC(=O)Cn2cccc2C(=O)c2ccccc2)c(OC)c1"
discrete_label = -1


====

- method: qHTS Assay for Lipid Storage Modulators in Drosophila S3 Cells;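 for cell number change: cells counted by Cell Tracker Red CMTPX staining in the red channel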
- measurement setup: BODIPY lipid droplet fluorescence, 18-24 h, cells fed with added oleic acid; measured here: cell count max response
The whole screen tested about 320,000 compounds, of which about 2,100 (0.66%) were called active. Inconclusive results (about 53%) are left out. The entries come from a sample that favours actives as a whole.
reported endpoint: cell number change (%)

[[record]]
molecule = "N/C(CCN1CCOCC1)=N/O"
measured_value = -8.53

[[record]]
molecule = "COc1ccc(C(=O)CSc2ccc3nnc(-c4cccnc4)n3n2)cc1"
measured_value = -3.07

[[record]]
molecule = "O=C1CC(C(=O)Nc2cc(Cl)ccc2Cl)n2ncnc2N1 (stereo unspecified)"
measured_value = -2.1

[[record]]
molecule = "COC(=O)c1ccc(C2C(C(=O)OCC(C)C)=C(C)N=C3SCCC(=O)N32)cc1 (stereo unspecified)"
measured_value = -2.78

[[record]]
molecule = "CCSc1nc(-c2ccccc2)c2cc(Cl)ccc2n1"
measured_value = -8.68

[[record]]
molecule = "COCCn1ccc2c(OCC(=O)NCc3ccccc3)cccc2c1=O"
measured_value = -6.52

[[record]]
molecule = "CSc1nc(-c2ccc(C)cc2)nc(C(Cl)Cl)n1"
measured_value = 10.6

[[record]]
molecule = "Cc1ccc(N(CC(O)CN2CCCC2)S(=O)(=O)c2ccc(C)cc2)cc1 (stereo unspecified)"
measured_value = -13

[[record]]
molecule = "C=CCNC(=O)/C(C#N)=C\\c1cc(Cl)c(O)c(OCC)c1"
measured_value = 2.03

[[record]]
molecule = "Cc1nc(CNC(=O)CC2C(=O)NCCN2Cc2ccc(F)cc2)cs1 (stereo unspecified)"
measured_value = 20.2

[[record]]
molecule = "CSc1nnc(-c2ccccc2)c(-c2ccccc2)n1"
measured_value = -3.83

[[record]]
molecule = "O=C(CNC(=O)c1cccs1)NCC(=O)OCc1ccc(F)cc1"
measured_value = -6.51

[[record]]
molecule = "CSc1ccc(S(=O)(=O)NC2CC2)cc1"
measured_value = 1.23

[[record]]
molecule = "Nc1nc(SCc2ccccc2Cl)nc2nc3c(cc12)CCCC3"
measured_value = -12.1

[[record]]
molecule = "CN(C)CCCN(C(=O)COc1ccccc1)c1nc2ccc(F)cc2s1"
measured_value = -15.9

[[record]]
molecule = "COc1ccc(CCNC(=O)COc2nncc3ccccc23)cc1"
measured_value = -8.53

[[record]]
molecule = "CSc1ccc(C(=O)C2CCCN(C(=O)c3cc4cc(F)ccc4[nH]3)C2)cc1 (stereo unspecified)"
measured_value = 18.3

[[record]]
molecule = "Cc1ccc(C(=O)NCc2ccco2)cc1S(=O)(=O)N1CCOCC1"
measured_value = -14.2

[[record]]
molecule = "COC(=O)Cc1cc(=O)n2[nH]c(C)c(-c3ccccc3)c2n1"
measured_value = -1.66

[[record]]
molecule = "O=C(Nc1c2c(nn1-c1ccccc1)CS(=O)(=O)C2)c1ccc2c(c1)OCO2"
measured_value = -19

[[record]]
molecule = "NC(=O)CSc1cn(CCNC(=O)c2cccs2)c2ccccc12"
measured_value = 22.5

[[record]]
molecule = "N#Cc1cccc(S(=O)(=O)Nc2c(NC3CCCCC3)c3ccccc3oc2=O)c1"
measured_value = -28.3

[[record]]
molecule = "CN(C)c1ccc(NC(=O)CN2CCC(N3CCCCC3)CC2)cc1"
measured_value = -25.9

[[record]]
molecule = "CCOC(=O)Cc1cc(=O)n2[nH]c(C)c(-c3ccc(Cl)cc3)c2n1"
measured_value = -27.5

[[record]]
molecule = "Cc1ccc(-c2nc(CS(=O)CC(=O)NCCCc3ccccc3)c(C)o2)cc1 (stereo unspecified)"
measured_value = 13.7

[[record]]
molecule = "COc1cc(/C=C(/C#N)C(=O)NCc2ccccc2)cc(OC)c1OC"
measured_value = -27.2

[[record]]
molecule = "O=C(CCCCCNC(=O)c1ccccc1)N/N=C/c1ccccc1O"
measured_value = -19.4

[[record]]
molecule = "c1ccc2c(N3CCCCC3)nnc(N3CCCCC3)c2c1"
measured_value = 9

[[record]]
molecule = "CCn1cc(S(=O)(=O)NC(C)c2cc(OC)ccc2OC)cn1 (stereo unspecified)"
measured_value = 5.77

[[record]]
molecule = "CC(C)(C)C(=O)NCCN1C(=O)S/C(=C\\c2ccc([N+](=O)[O-])cc2)C1=O"
measured_value = -4.32

[[record]]
molecule = "O=C(CCl)N1N=C(c2ccco2)CC1c1cccs1 (stereo unspecified)"
measured_value = -16

[[record]]
molecule = "CCN1CCN(CC(=O)Nc2ccc(N(C)C)cc2)CC1"
measured_value = 14.8

[[record]]
molecule = "CC(C)N(C(=O)Cn1c(-c2ccccc2Cl)nc2ccccc21)c1ccccc1"
measured_value = -7.06

[[record]]
molecule = "C=CCNC(=O)/C(C#N)=C\\c1cc(Cl)c(OCC)c(OC)c1"
measured_value = -28.8

[[record]]
molecule = "CC(=O)N(CCCN(C)C)Cc1ccccn1"
measured_value = 6.64

[[record]]
molecule = "Cn1c2c(c(=O)n(C)c1=O)C(NC(=O)c1cccs1)(C(F)(F)F)C(=O)N2 (stereo unspecified)"
measured_value = -6.48

[[record]]
molecule = "Cc1cc2nc(SCC(=O)N(C)C)c3c(c2cc1C)CCCC3"
measured_value = -15.1

[[record]]
molecule = "CCOC(=O)C1(Cc2ccccc2C(F)(F)F)CCN(C2CCN(C(C)=O)CC2)CC1"
measured_value = 11.4

[[record]]
molecule = "CCc1ccc(CNC(=O)C2CCN(S(=O)(=O)N3CCC4(CC3)OCCO4)CC2)cc1"
measured_value = 0.101

[[record]]
molecule = "CC(=O)/C(=N/Nc1ccc(Br)cc1)Sc1cccc2cccnc12"
measured_value = -2.71

[[record]]
molecule = "O=C(c1ccccc1)N1N=C(c2ccco2)CC1c1cccs1 (stereo unspecified)"
measured_value = 16.1

[[record]]
molecule = "COc1ccc(NC(=O)Cn2ccc3c(OC)cccc3c2=O)cc1"
measured_value = 0.407

[[record]]
molecule = "O=C(COc1ccc([N+](=O)[O-])cc1)Nc1ccc(NC(=O)c2ccccc2)cc1"
measured_value = -8.36

[[record]]
molecule = "COCCn1nnnc1C(c1ccccn1)N1CCN(c2cccc(C)c2C)CC1 (stereo unspecified)"
measured_value = 1.34

[[record]]
molecule = "Cc1ccc(S(=O)(=O)CCC(=O)OCc2ccc(Cl)cc2)cc1"
measured_value = -1.83

[[record]]
molecule = "Cc1ccc(-c2nnc(N3CCCCC3)c3ccccc23)cc1"
measured_value = -9.5

